# Test Protocol: Pharmacokinetic assay in rats
# Type: in vivo, rat
# Assay Context: rat, plasma, iv; SD male rats, i.v. 1 mg/kg
Test Readout: AUC(0-t) (ng·h/mL)
Give the value, in units of ng·h/mL, as a plain number.

Q. Please give measured AUC(0-t) of the following entry: [2H]C([2H])([2H])N1CCN(c2cc(-c3ccc(N4CC5CC(C4)N5Cc4ccc(OC)nc4)nc3)c3c(C#N)cnn3c2)CC1 [Compound 94]
A. 240

Q. Assign AUC(0-t) to the following record: COc1ccc(CN2C3CC2CN(c2ccc(-c4cc(OCC(C)(C)O)cn5ncc(C#N)c45)cn2)C3)cn1 [Selpercatinib, selpercatinib, reference compound]
A. 3310

====

What clearance was measured for each of the following?
# Test Protocol: Pharmacokinetic assay in rats
# Format: in vivo, rat
# Assay Context: rat, plasma, iv; SD male rats, i.v. 1 mg/kg
State the answer as a number, implicitly in mL/min/kg.

Q. Give me measured clearance, please, for this molecule: [2H]C([2H])([2H])N1CCN(c2cc(-c3ccc(N4CC5CC(C4)N5Cc4ccc(OC)nc4)nc3)c3c(C#N)cnn3c2)CC1
A. 51.2

Q. Output measured clearance for this item: COc1ccc(CN2C3CC2CN(c2ccc(-c4cc(OCC(C)(C)O)cn5ncc(C#N)c45)cn2)C3)cn1 [Selpercatinib, selpercatinib, reference compound]
A. 5.1

====

Hi! I'm sharing some IC50 results obtained with FGFR3 (Homo sapiens (Human)).
Sequence (P22607 23-806): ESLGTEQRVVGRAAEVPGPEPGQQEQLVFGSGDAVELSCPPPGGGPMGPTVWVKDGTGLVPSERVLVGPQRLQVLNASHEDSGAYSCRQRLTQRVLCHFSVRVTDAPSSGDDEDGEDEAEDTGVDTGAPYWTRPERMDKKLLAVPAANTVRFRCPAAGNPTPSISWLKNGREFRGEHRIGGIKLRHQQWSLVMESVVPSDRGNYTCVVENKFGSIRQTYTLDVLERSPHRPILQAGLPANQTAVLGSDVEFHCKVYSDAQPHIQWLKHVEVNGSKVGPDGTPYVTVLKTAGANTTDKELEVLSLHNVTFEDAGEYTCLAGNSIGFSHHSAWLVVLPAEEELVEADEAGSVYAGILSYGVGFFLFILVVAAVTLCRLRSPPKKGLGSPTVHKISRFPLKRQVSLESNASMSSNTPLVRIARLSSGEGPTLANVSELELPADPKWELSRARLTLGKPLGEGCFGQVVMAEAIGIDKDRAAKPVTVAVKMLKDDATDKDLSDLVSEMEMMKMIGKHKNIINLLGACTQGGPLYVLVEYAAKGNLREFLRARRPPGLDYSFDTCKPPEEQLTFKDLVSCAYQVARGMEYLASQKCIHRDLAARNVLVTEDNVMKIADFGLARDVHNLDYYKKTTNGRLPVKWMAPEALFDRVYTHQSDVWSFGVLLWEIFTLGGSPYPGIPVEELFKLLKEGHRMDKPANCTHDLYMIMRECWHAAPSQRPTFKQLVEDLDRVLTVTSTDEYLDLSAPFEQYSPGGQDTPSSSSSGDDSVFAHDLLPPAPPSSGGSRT
Provide the reading as a plain figure in nM.

Q. Tell me IC50 of COc1ccc(CN2C3CC2CN(c2ccc(-c4cc(OCC(C)(C)O)cn5ncc(C#N)c45)cn2)C3)cn1 [Selpercatinib, selpercatinib, reference compound] when tested on FGFR3 (Homo sapiens (Human)).
A. 349

Q. Report IC50 from FGFR3 (Homo sapiens (Human)) testing of [2H]C([2H])([2H])N1CCN(c2cc(-c3ccc(N4CC5CC(C4)N5Cc4ccc(OC)nc4)nc3)c3c(C#N)cnn3c2)CC1
A. 309

====

Field: Tmax. Provide a value for each of the compounds that follow.
# Test Protocol: Pharmacokinetic assay in rats
# Format: in vivo, rat
# Assay Context: rat, plasma, po; SD male rats, p.o. 5 mg/kg
Unit h implied. Number only.

Q. Entry COc1ccc(CN2C3CC2CN(c2ccc(-c4cc(OCC(C)(C)O)cn5ncc(C#N)c45)cn2)C3)cn1 [Selpercatinib, selpercatinib, reference compound] needs its Tmax filled in; supply it.
A. 2.67

Q. Fill in Tmax for record [2H]C([2H])([2H])N1CCN(c2cc(-c3ccc(N4CC5CC(C4)N5Cc4ccc(OC)nc4)nc3)c3c(C#N)cnn3c2)CC1 [Compound 94]
A. 4

====

# Assayed Target: hERG potassium channel (Homo sapiens (Human), UniProt Q12809)
# Sequence (Q12809 whole entry): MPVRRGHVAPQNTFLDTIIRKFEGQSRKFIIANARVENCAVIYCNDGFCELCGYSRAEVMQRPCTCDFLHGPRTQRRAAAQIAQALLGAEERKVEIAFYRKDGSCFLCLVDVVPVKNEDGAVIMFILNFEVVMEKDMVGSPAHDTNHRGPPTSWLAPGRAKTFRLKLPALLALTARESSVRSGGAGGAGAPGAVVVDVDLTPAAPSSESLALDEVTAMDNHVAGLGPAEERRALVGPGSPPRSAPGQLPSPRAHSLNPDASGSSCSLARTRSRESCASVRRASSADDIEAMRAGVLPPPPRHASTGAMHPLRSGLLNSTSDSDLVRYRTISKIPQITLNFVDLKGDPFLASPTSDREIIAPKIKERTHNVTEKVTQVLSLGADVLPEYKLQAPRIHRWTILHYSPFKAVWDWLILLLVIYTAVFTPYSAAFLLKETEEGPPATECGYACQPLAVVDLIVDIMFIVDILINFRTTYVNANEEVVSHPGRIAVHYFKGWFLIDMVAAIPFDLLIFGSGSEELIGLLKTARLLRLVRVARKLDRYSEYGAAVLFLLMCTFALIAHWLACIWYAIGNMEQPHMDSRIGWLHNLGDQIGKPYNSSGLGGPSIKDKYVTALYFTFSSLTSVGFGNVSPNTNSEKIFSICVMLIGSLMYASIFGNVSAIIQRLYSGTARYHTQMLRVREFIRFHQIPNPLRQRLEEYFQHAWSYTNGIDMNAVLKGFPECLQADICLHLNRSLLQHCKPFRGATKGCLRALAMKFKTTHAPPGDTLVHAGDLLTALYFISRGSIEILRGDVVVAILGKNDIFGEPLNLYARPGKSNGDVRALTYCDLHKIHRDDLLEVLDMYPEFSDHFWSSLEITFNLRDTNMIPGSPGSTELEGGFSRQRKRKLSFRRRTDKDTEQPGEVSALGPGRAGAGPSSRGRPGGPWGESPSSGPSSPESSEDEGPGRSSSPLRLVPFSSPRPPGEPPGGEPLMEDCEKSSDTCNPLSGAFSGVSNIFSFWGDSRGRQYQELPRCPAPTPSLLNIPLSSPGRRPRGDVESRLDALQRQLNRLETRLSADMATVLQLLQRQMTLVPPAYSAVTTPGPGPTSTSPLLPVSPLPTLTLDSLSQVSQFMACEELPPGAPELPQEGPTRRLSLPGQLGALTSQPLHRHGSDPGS
# Test Protocol: Inhibition of hERG potassium channel, whole-cell patch clamp in HEK293 cells
# Assay Context: read-out: IC50 for inhibition of hERG potassium channel; HEK293 cells stably expressing hERG, patch clamp
Test Readout: pIC50
# reply with the number alone; pIC50 is -log10 of concentration in mol/L

Q. Enter measured pIC50, system hERG potassium channel (Homo sapiens (Human), UniProt Q12809), for the compound shown: COc1ccc(CN2C3CC2CN(c2ccc(-c4cc(OCC(C)(C)O)cn5ncc(C#N)c45)cn2)C3)cn1 [Selpercatinib, selpercatinib, reference compound]
A. 5.56

Q. Report pIC50 on hERG potassium channel (Homo sapiens (Human), UniProt Q12809) for this entry: COc1ccc(CN2C3CC2CN(c2ccc(-c4cc(N5CCP(C)(=O)CC5)cn5ncc(C#N)c45)cn2)C3)cn1
A. 4.65

Q. Given COc1ccc(CN2C3CC2CN(c2ccc(-c4cc(N5CCN(C)CC5)cn5ncc(C#N)c45)cn2)C3)cn1 , report its pIC50 on hERG potassium channel (Homo sapiens (Human), UniProt Q12809).
A. 5.67

Q. Send back hERG potassium channel (Homo sapiens (Human), UniProt Q12809) pIC50 of COc1ccc(CN2C3CC2CN(c2ccc(-c4cc(N5CCN(C)C(=O)C5)cn5ncc(C#N)c45)cn2)C3)cn1 only.
A. 5.14

Q. Provide pIC50, system hERG potassium channel (Homo sapiens (Human), UniProt Q12809), entry COc1ccc(CN2C3CC2CN(c2ccc(-c4cc(N5CCOCC5)cn5ncc(C#N)c45)cn2)C3)cn1
A. 5.57

====

# Test Protocol: Pharmacokinetic assay in rats
# Format: in vivo, rat
# Assay Context: rat, plasma, iv; SD male rats, i.v. 1 mg/kg
Test Readout: Cmax (ng/mL)
The reply should contain only the number, in ng/mL.

Q. // fetch Cmax given entry COc1ccc(CN2C3CC2CN(c2ccc(-c4cc(OCC(C)(C)O)cn5ncc(C#N)c45)cn2)C3)cn1 [Selpercatinib, selpercatinib, reference compound]
A. 1260

Q. Please report the measured Cmax for [2H]C([2H])([2H])N1CCN(c2cc(-c3ccc(N4CC5CC(C4)N5Cc4ccc(OC)nc4)nc3)c3c(C#N)cnn3c2)CC1
A. 42.3

====

The reader will find IC50 measurements below, all made with FGFR2 (Homo sapiens (Human), UniProt P21802).
Sequence (P21802 22-821): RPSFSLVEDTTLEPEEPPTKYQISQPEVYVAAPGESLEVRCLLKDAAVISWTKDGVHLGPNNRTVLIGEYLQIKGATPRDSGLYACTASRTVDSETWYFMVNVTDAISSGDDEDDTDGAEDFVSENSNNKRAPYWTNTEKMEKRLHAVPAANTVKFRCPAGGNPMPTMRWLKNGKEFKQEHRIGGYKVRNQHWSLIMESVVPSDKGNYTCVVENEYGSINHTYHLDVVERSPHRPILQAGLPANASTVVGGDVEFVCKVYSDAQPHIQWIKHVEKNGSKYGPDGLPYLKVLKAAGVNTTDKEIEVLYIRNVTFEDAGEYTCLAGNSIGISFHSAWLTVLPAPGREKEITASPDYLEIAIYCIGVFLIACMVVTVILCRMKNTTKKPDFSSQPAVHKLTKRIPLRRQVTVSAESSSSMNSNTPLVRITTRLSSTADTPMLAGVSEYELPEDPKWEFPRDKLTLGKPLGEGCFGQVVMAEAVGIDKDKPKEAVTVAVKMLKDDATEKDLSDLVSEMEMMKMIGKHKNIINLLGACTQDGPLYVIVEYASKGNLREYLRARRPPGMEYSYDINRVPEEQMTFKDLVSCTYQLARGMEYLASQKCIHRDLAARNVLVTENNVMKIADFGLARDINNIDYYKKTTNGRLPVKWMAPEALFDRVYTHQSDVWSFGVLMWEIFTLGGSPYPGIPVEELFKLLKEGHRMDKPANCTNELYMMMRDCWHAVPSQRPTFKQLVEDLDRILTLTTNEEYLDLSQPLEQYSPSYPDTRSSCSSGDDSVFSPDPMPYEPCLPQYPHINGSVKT
Reply numerically in µM, unit not repeated.

Q. Using known records, supply IC50 for COc1ccc(CN2C3CC2CN(c2ccc(-c4cc(OCC(C)(C)O)cn5ncc(C#N)c45)cn2)C3)cn1 [Selpercatinib, selpercatinib, reference compound]
A. 0.0206

Q. Dear colleague, please send me the reported IC50 for [2H]C([2H])([2H])N1CCN(c2cc(-c3ccc(N4CC5CC(C4)N5Cc4ccc(OC)nc4)nc3)c3c(C#N)cnn3c2)CC1 when you can.
A. 0.0265

====

# Assayed Target: FGFR1 V561M (Homo sapiens (Human), UniProt P11362, V561M)
# Sequence (P11362 22-822 V561M): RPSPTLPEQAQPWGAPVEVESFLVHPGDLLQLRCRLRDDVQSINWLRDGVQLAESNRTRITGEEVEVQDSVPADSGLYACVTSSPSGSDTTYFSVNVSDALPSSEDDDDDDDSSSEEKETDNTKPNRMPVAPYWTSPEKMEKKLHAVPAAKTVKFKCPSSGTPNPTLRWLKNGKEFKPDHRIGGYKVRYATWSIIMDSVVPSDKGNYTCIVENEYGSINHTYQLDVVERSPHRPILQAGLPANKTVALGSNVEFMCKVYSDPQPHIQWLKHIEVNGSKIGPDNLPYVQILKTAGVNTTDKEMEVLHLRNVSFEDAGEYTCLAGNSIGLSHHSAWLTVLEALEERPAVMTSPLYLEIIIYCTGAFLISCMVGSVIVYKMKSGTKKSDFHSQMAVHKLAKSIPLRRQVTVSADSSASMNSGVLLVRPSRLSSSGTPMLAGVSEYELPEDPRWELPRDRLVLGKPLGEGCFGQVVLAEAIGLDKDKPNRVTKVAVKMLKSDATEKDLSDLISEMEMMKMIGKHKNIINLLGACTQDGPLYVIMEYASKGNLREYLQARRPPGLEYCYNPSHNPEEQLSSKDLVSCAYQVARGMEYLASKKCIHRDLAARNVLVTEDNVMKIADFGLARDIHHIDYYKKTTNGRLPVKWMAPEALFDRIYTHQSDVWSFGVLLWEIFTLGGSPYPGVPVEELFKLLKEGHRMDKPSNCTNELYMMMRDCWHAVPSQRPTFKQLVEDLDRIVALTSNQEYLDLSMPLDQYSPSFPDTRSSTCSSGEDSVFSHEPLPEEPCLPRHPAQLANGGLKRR
# Test Protocol: HTRF kinase activity assay, FGFR1 V561M
Test Readout: pIC50
When answering, recall that pIC50 equals minus log10 of the concentration in mol/L, and write that number alone.

Q. Identify measured pIC50 obtained with FGFR1 V561M (Homo sapiens (Human), UniProt P11362, V561M) for COc1ccc(CN2C3CC2CN(c2ccc(-c4cc(OCC(C)(C)O)cn5ncc(C#N)c45)cn2)C3)cn1 [Selpercatinib, selpercatinib, reference compound] .
A. 5.71

Q. For FGFR1 V561M (Homo sapiens (Human), UniProt P11362, V561M), give pIC50 of the listed molecule: [2H]C([2H])([2H])N1CCN(c2cc(-c3ccc(N4CC5CC(C4)N5Cc4ccc(OC)nc4)nc3)c3c(C#N)cnn3c2)CC1
A. 5.85

====

# Assayed Target: CCDC6-RET (Homo sapiens (Human), UniProt P07949+Q16204)
# Sequence (P07949 other isoform, or with tags, fused parts or gaps): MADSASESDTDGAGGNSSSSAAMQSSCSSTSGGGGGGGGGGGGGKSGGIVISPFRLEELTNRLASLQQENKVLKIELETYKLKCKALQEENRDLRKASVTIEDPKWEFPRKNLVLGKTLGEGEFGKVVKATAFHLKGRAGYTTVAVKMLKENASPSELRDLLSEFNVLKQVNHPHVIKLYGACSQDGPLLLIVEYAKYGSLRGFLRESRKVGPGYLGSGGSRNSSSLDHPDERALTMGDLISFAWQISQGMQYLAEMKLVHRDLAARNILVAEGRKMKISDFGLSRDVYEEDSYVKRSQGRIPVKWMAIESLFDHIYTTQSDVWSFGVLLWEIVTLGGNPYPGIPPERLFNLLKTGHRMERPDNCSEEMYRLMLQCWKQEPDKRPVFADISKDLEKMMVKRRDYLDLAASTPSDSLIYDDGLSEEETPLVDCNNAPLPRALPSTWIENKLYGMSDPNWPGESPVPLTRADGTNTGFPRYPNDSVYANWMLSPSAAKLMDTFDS
# Test Protocol: HTRF kinase activity assay, CCDC6-RET
# Assay Context: 1 μM ATP
Test Readout: pIC50
Give only the number. pIC50 is defined as minus log10 of concentration in molar units.

Q. Complete the entry with pIC50 for COc1ccc(CN2C3CC2CN(c2ccc(-c4cc(-c5cnn6c5CCC6)cn5ncc(C#N)c45)cn2)C3)cn1
A. 8.67

Q. Give the reported pIC50 for this molecule. COc1ccc(CN2CCC(Nc3ccc(-c4cc(-c5cnn(C)c5)cn5ncc(C#N)c45)cn3)CC2)cn1
A. 7.22

Q. Please give measured pIC50 of the following entry: COc1ccc(CN(C)C2CCCCC2N(C)c2ccc(-c3cc(-c4cnn(C)c4)cn4ncc(C#N)c34)cn2)cn1 (stereo not shown)
A. 7.15

Q. Answer with reported pIC50 of COc1ccc(CN2CCCN(c3ccc(-c4cc(-c5cnn(C)c5)cn5ncc(C#N)c45)cn3)CC2)cn1
A. 8.50

====

What IC50 was measured for each of the following?
Your answer should be a plain number; it is taken to be in nM.

Q. // fetch IC50; item: COc1ccc(CN2C3CC2CN(c2ccc(-c4cc(N5CC6CC(C5)N6)cn5ncc(C#N)c45)cn2)C3)cn1 ; system: hERG potassium channel (Homo sapiens (Human))
A. 2060

Q. # return IC50 for COc1ccc(CN2C3CC2CN(c2ccc(-c4cc(N5CC6CC(C5)N6C)cn5ncc(C#N)c45)cn2)C3)cn1 , test system: hERG potassium channel (Homo sapiens (Human))
A. 1310

====

Would you kindly list pIC50 for each of these molecules?
# System: Ba/F3 KIF5B-RET cells
# Test Protocol: Ba/F3 KIF5B-RET cell inhibition (CellTiter-Glo)
# Type: cell-based
# Assay Context: Mus musculus, BaF3, 72 h
// pIC50 here means minus log10 of the molar concentration (mol/L)

Q. Give recorded pIC50. COc1ccc(CN2C3CC2CN(c2ccc(-c4cc(N5CCCC(O)C5)cn5ncc(C#N)c45)cn2)C3)cn1 (stereo not drawn)
A. 7.77

Q. Quote pIC50 reported for CO[C@]1(C(=O)N[C@@H](C)c2ccc(-n3cc(F)cn3)nc2)CC[C@H](c2nc(C)cc(Nc3cc(C)[nH]n3)n2)CC1 [BLU-667, reference compound] please.
A. 7.95

Q. Hello, please tell me recorded pIC50 for this one: COc1ccc(CN2C3CC2CN(c2ccc(-c4cc(N5CCNCC5)cn5ncc(C#N)c45)cn2)C3)cn1
A. 7.38

Q. Give pIC50 for the following molecule: COc1ccc(CN2C3CC2CN(c2ccc(-c4cc(N5CCC(C)(O)C5)cn5ncc(C#N)c45)cn2)C3)cn1 (stereo not drawn)
A. 9.00

Q. State its pIC50: COc1ccc(CN2C3CC2CN(c2ccc(-c4cc(N5CCN(C)CC5)cn5ncc(C#N)c45)cn2)C3)cn1
A. 7.93

Q. Complete the entry with pIC50 for COc1ccc(CN2C3CC2CN(c2ccc(-c4cc(OCC(C)(C)O)cn5ncc(C#N)c45)cn2)C3)cn1 [Selpercatinib, selpercatinib, reference compound]
A. 8.08
